Target: human TLR7 (Homo sapiens, UniProt Q9NYK1)
Experiment: TLR7 inhibition reporter assay (HEK-Blue cells, SEAP reporter, gardiquimod stimulation)
Conditions: HEK-Blue cells overexpressing human TLR7, SEAP reporter, gardiquimod 7.5 μM
pIC50: −log10 of the molar value.
property: pIC50

Solved entries:
{"molecule": "CC(C)c1c(-c2c[nH]c3cccnc23)[nH]c2ccc(C3CCNCC3)cc12 [Example 19]", "pIC50": "6.00 to 7.00"}
{"molecule": "Cc1nc(CN2CCC(c3ccc4[nH]c(-c5ccc6nccn6c5)c(CC(F)F)c4c3)CC2)c[nH]1 [Example 939]", "pIC50": "6.00 to 7.00"}
{"molecule": "Cc1cc(-c2[nH]c3ccc(C4CCN(C(=O)CN5CCCC5)CC4)cc3c2C(C)C)cn2nnnc12 [Example 470]", "pIC50": "> 7.00"}
{"molecule": "CCc1c(-c2cnc3[nH]c(=O)[nH]c3c2)[nH]c2ccc(C3CCNCC3)cc12 [Example 180]", "pIC50": "4.30 to 6.00"}
{"molecule": "Cc1cc(-c2[nH]c3ccc(C4CCN(CC(C)(C)O)CC4)cc3c2C(C)C)cc2ncnn12 [Example 756]", "pIC50": "> 7.00"}
{"molecule": "CC(C)c1c(-c2ccnc3[nH]ncc23)[nH]c2ccc(C3CCN(Cc4ccc(N5CCN(C)CC5)cc4)CC3)cc12 [Example 919]", "pIC50": "> 7.00"}
{"molecule": "Cc1cc2nnnn2cc1-c1[nH]c2ccc(C3CCN(CCS(C)(=O)=O)CC3)cc2c1C(C)C [Example 790]", "pIC50": "> 7.00"}
{"molecule": "CNCC(=O)N1CCC(c2ccc3[nH]c(-c4ccc5nc(C)cn5c4)c(CC(F)F)c3c2)CC1 [Example 550]", "pIC50": "> 7.00"}

[Q] For CNCC(=O)N1CCC(c2ccc3[nH]c(-c4cc(C)nc5ccccc45)c(C(C)C)c3c2)CC1 [Example 534] , write its pIC50.
[A] > 7.00

[Q] For Cc1cc(-c2[nH]c3ccc(C4CCNCC4)cc3c2C(C)C)cn2c(C#N)cnc12 [Example 130] , write its pIC50.
[A] 6.00 to 7.00

[Q] For CCc1c(-c2ccnc3[nH]cc(C)c23)[nH]c2ccc(C3CCNCC3)cc12 [Example 217] , write its pIC50.
[A] 6.00 to 7.00

[Q] For COCCN1CCC(c2ccc3[nH]c(-c4cc(C)n5ncnc5c4)c(C(C)C)c3c2)CC1 [Example 779] , write its pIC50.
[A] > 7.00

====

Overview of reported pIC50 across a group of molecules:
Biological target: human TLR9 (Homo sapiens, UniProt Q9NR96)
Construct: host or cells: HEK-Blue cells (HEK293-derived reporter line)
Sequence (Q9NR96 26-1032): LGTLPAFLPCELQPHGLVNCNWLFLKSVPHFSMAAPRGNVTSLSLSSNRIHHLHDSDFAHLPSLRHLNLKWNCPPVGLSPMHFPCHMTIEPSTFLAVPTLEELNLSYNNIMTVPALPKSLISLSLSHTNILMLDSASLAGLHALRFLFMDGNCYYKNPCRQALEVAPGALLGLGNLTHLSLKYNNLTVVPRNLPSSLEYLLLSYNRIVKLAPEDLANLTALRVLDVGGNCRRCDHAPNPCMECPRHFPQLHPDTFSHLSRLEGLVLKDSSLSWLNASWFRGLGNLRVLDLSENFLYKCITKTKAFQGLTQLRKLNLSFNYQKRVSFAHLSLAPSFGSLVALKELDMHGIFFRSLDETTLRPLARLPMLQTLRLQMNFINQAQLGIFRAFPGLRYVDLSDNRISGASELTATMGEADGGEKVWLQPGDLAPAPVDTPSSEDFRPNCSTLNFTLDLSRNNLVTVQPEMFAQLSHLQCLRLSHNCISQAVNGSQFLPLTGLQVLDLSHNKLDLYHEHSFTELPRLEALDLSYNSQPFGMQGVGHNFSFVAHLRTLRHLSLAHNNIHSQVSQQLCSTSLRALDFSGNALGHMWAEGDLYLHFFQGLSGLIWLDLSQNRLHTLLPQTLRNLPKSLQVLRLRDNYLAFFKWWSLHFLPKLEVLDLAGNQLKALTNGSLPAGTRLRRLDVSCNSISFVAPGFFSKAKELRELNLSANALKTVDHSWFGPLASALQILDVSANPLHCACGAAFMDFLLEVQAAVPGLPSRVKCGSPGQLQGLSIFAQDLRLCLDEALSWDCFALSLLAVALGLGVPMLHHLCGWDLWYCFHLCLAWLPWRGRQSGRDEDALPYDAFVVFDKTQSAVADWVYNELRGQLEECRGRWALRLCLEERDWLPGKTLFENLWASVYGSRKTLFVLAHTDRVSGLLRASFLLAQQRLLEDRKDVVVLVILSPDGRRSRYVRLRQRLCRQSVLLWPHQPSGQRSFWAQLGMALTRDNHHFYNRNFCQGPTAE
Assay: TLR9 inhibition reporter assay (HEK-Blue cells, SEAP reporter, ODN2006 stimulation)
Format: cell-based
Settings: HEK-Blue cells overexpressing human TLR9, SEAP reporter, ODN2006 5 nM
pIC50: −log10 of the molar value.

Solved entries:
{"molecule": "CC(C)c1c(-c2ccc3cnnn3c2)[nH]c2ccc(C3CCN(Cc4ncn(C)n4)CC3)cc12 [Example 879]", "result": "4.30 to 6.00"}
{"molecule": "Cc1c(-c2ccnc3[nH]cc(-c4ccccc4)c23)[nH]c2ccc(C3CCNCC3)cc12 [Example 223]", "result": "6.00 to 7.00"}
{"molecule": "CC(C)c1c(-c2cc(F)c3nccn3c2)[nH]c2ccc(C3CCNCC3)cc12 [Example 118]", "result": "6.00 to 7.00"}

Okay, now this molecule:
[Q] Lab note: human TLR9 (Homo sapiens, UniProt Q9NR96) assay, enter pIC50 for CC(C)c1c(-c2ccnc3[nH]ncc23)[nH]c2cc(F)c(C3CCN(C4CCN(C(C)C)CC4)CC3)cc12 [Example 830] here
[A] > 7.00

====

Molecular target: human TLR9 (Homo sapiens)
Experiment: TLR9 inhibition reporter assay (HEK-Blue cells, SEAP reporter, ODN2006 stimulation)
Conditions: HEK-Blue cells overexpressing human TLR9, SEAP reporter, ODN2006 5 nM
From the text: TLR7/8/9 Inhibition Reporter Assays HEK-Blue™-cells (Invivogen) overexpressing human TLR7, TLR8 or TLR9 receptors were used for screening inhibitors of these receptors using an inducible SEAP (secreted embryonic alkaline phosphatase) reporter gene under the control of the IFN-β minimal promoter fused to five NF-κB and AP-1-binding sites. […]
Overview of reported IC50 across a group of compounds:

Solved entries:
{"compound": "Cc1c(-c2ccnc3[nH]ccc23)[nH]c2ccc(C3CCN(C4CCN(C(C)C)CC4)CC3)cc12 [Example 813]", "result": "< 100 nM"}
{"compound": "CC(C)c1c(-c2ccnc3[nH]ncc23)[nH]c2cc(Cl)c(C3CCNCC3)cc12 [Example 252]", "result": "100 to 1000 nM"}

[Q] Lab note: human TLR9 (Homo sapiens) assay, enter IC50 for Cc1c(-c2nccc3[nH]cnc23)[nH]c2ccc(C3CCN(C4CCN(C(C)C)CC4)CC3)cc12 [Example 805] here
[A] < 100 nM

[Q] Lab note: human TLR9 (Homo sapiens) assay, enter IC50 for Cc1cc(-c2c[nH]c3nccc(-c4[nH]c5ccc(C6CCNCC6)cc5c4C)c23)n(C)n1 [Example 225] here
[A] 100 to 1000 nM

[Q] Lab note: human TLR9 (Homo sapiens) assay, enter IC50 for Cc1cc(-c2[nH]c3ccc(C4CCNCC4)cc3c2C(C)C)nc2scnc12 [Example 101] here
[A] 1000 to 50000 nM

[Q] Lab note: human TLR9 (Homo sapiens) assay, enter IC50 for COc1cc(-c2[nH]c3ccc(C4CCNCC4)cc3c2C(C)C)nn2ncnc12 [Example 38] here
[A] 100 to 1000 nM

[Q] Lab note: human TLR9 (Homo sapiens) assay, enter IC50 for Cc1cn2cc(-c3[nH]c4ccc(C5CCNCC5)cc4c3C(C)C)cnc2n1 [Example 159] here
[A] 100 to 1000 nM

[Q] Lab note: human TLR9 (Homo sapiens) assay, enter IC50 for Cc1cc(-c2[nH]c3ccc(C4CCN(C5COC5)CC4)cc3c2C(C)C)cn2nncc12 [Example 737] here
[A] 1000 to 50000 nM

[Q] Lab note: human TLR9 (Homo sapiens) assay, enter IC50 for Cc1cc2[nH]c(-c3ccnc4[nH]ncc34)c(C(C)C)c2cc1C1CCN(C2CCN(C(C)C)CC2)CC1 [Example 826] here
[A] 100 to 1000 nM

[Q] Lab note: human TLR9 (Homo sapiens) assay, enter IC50 for Cc1cc(-c2[nH]c3ccc(C4CCNCC4)cc3c2C(C)C)cc2cn(C)nc12 [Example 138] here
[A] 1000 to 50000 nM

====

Overview of reported pIC50 across a group of molecules:
Biological target: human TLR7 (Homo sapiens)
Sequence (Q9NYK1 27-1049): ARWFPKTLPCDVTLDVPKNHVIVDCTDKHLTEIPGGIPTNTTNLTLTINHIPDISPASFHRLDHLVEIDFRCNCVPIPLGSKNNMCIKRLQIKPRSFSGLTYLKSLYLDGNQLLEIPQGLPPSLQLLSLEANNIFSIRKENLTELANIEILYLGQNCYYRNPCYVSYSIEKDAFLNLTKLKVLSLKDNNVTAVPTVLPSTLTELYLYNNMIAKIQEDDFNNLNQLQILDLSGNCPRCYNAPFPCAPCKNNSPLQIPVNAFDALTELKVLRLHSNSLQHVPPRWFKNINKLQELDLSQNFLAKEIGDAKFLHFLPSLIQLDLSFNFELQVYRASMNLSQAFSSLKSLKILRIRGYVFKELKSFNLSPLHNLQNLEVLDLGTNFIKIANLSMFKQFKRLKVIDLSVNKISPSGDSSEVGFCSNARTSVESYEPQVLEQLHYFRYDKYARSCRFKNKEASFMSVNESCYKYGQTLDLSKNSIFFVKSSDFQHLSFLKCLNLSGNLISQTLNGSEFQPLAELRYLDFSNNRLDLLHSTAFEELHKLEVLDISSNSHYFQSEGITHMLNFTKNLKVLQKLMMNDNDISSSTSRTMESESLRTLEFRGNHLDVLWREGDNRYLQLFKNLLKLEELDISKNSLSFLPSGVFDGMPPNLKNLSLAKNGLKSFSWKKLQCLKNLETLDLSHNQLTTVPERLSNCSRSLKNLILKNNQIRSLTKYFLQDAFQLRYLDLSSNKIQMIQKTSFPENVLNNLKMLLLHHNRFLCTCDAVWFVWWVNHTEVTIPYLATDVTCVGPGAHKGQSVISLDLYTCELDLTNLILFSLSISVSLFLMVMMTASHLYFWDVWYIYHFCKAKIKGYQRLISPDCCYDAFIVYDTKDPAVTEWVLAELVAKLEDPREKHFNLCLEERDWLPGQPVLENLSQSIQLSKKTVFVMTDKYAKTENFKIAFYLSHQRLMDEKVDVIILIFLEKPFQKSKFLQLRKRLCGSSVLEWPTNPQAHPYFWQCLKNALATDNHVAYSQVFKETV
Experiment: TLR7 inhibition reporter assay (HEK-Blue cells, SEAP reporter, gardiquimod stimulation)
Conditions: HEK-Blue cells overexpressing human TLR7, SEAP reporter, gardiquimod 7.5 μM
pIC50: −log10 of the molar value.

Solved entries:
{"smiles_entry": "Cc1cc(-c2[nH]c3ccc(C4CCN(CCC(F)(F)F)CC4)cc3c2C(C)C)cn2nnnc12", "pIC50": "> 7.00"}
{"smiles_entry": "CCc1c(-c2ccnc3[nH]ncc23)[nH]c2ccc(C3CCN(Cc4cn[nH]n4)CC3)cc12", "pIC50": "> 7.00"}
{"smiles_entry": "Cc1cc(-c2[nH]c3ccc(C4CCNCC4)cc3c2C(C)C)cn2cc(C(=O)N(C)C)nc12", "pIC50": "> 7.00"}
{"smiles_entry": "CC(C)NCC(=O)N1CCC(c2ccc3[nH]c(-c4ccnc5[nH]ncc45)c(C(C)C)c3c2)CC1", "pIC50": "> 7.00"}
{"smiles_entry": "Cc1c(-c2ccc3[nH]nnc3c2)[nH]c2ccc(C3CCNCC3)cc12", "pIC50": "4.30 to 6.00"}
{"smiles_entry": "Cc1cc(-c2[nH]c3ccc(C4CCNCC4)cc3c2C(C)C)cn2cc(C(=O)NCCO)nc12", "pIC50": "> 7.00"}
{"smiles_entry": "CC(C)c1c(-c2ccn3nncc3c2)[nH]c2ccc(C3CCNCC3)cc12", "pIC50": "> 7.00"}
{"smiles_entry": "Cc1c(-c2ccnc3[nH]ccc23)[nH]c2ccc(C3CCN(C4CCN(C)CC4)CC3)cc12", "pIC50": "> 7.00"}
{"smiles_entry": "Cc1c(-c2ncnc3[nH]ccc23)[nH]c2ccc(C3CCN(C4CCN(C(C)C)CC4)CC3)cc12", "pIC50": "6.00 to 7.00"}
{"smiles_entry": "Cc1c(-c2ncc3cc[nH]c3n2)[nH]c2ccc(C3CCN(C4CCN(C(C)C)CC4)CC3)cc12", "pIC50": "4.30 to 6.00"}

[Q] For `CC(C)c1c(-c2cc(Cl)c3ncccc3c2)[nH]c2ccc(C3CCNCC3)cc12` , write its pIC50.
[A] > 7.00

[Q] For `CNCC(=O)N1CCC(c2ccc3[nH]c(-c4cc(OC)n5ncnc5c4)c(C(C)C)c3c2)CC1` , write its pIC50.
[A] > 7.00

[Q] For `CC(C)c1c(-c2ccnc3[nH]ncc23)[nH]c2ccc(C3CCN(C(=O)CN4CCNC(=O)C4)CC3)cc12` , write its pIC50.
[A] 6.00 to 7.00

[Q] For `Cc1cc(-c2[nH]c3ccc(C4CCN(CC(C)(C)O)CC4)cc3c2C(C)C)cn2ccnc12` , write its pIC50.
[A] > 7.00

[Q] For `CC(C)c1c(-c2ccc3[nH]cnc3c2)[nH]c2ccc(C3CCNCC3)cc12` , write its pIC50.
[A] 6.00 to 7.00

[Q] For `CNC(=O)CN1CCC(c2ccc3[nH]c(-c4ccc5ncnn5n4)c(C(C)C)c3c2)CC1` , write its pIC50.
[A] > 7.00
